Quick list: inhibition at 10 µM per entry.
Molecular target: ROCK2 protein (Homo sapiens)
Experiment: Degradation inducing activity of ROCK2 protein in HUVEC cells, Western blotting (Simple Western JESS)
Assay type: cell-based
Parameters: endogenous in cells; host or cells: HUVEC (ATCC CRL-1730)
Details: HUVEC, 24 h, degradation rate at 10 µM
result.type: inhibition at 10 µM

{"columns": ["molecule", "assay.target", "reported"],
 "data": [
  ["COC[C@H]1CN[C@H](C)CN1CC(=O)N1CC(C)(C)c2ncc(Cc3ccccc3OCCOCCOCCOCCOCCN[C@H](Cc3cccc(F)c3)C(=O)Nc3ccc(-c4ccncc4)cc3)cc21 [Example 74]", "ROCK2 protein (Homo sapiens)", "50 to 75%"],
  ["COC[C@H]1CN[C@H](C)CN1CC(=O)N1CC(C)(C)c2nc(CN(C)CCOCCOCCOCCOCCOCCOCCN[C@H](Cc3cccc(F)c3)C(=O)Nc3ccc(-c4ccncc4)cc3)c(Cc3ccc(F)cc3)cc21 [Example 34]", "ROCK2 protein (Homo sapiens)", "≥ 75%"],
  ["COC[C@H]1CN[C@H](C)CN1CC(=O)N1CC(C)(C)c2nc(CN(C)CCOCCOCCOCCOCCOCCOCCN[C@H](C)c3ccc(C(=O)Nc4ccncc4)cc3)c(Cc3ccc(F)cc3)cc21 [Example 27]", "ROCK2 protein (Homo sapiens)", "< 25%"]
]}

---

Target: ROCK2 protein (Homo sapiens)
Experiment: Degradation inducing activity of ROCK2 protein in HUVEC cells, Western blotting (Simple Western JESS)
Type: cell-based
Set-up: endogenous in cells; host or cells: HUVEC (ATCC CRL-1730)
Conditions: HUVEC, 24 h, degradation rate at 10 µM
result.type: inhibition at 10 µM

{"columns": ["smiles.str", "reported"],
 "data": [
  ["COC[C@H]1CN[C@H](C)CN1CC(=O)N1CC(C)(C)c2ncc(Cc3cccc(OCCOCCOCCOCCOCCOCCOCCNC[C@@H](C(=O)Nc4ccc5cnccc5c4)c4ccccc4)c3)cc21", "≥ 75%"],
  ["COC[C@H]1CN[C@H](C)CN1CC(=O)N1CC(C)(C)c2ncc(Cc3cccc(OCCOCCOCCOCCOCCN[C@H](Cc4cccc(F)c4)C(=O)Nc4ccc(-c5ccncc5)cc4)c3)cc21", "50 to 75%"],
  ["COC[C@H]1CN[C@H](C)CN1CC(=O)N1CC(C)(C)c2ncc(Cc3cccc(OCCOCCN[C@H](C)c4ccc(C(=O)Nc5ccncc5)cc4)c3)cc21", "≥ 75%"],
  ["C[C@@H]1CN(CC(=O)N2CC(C)(C)c3ncc(Cc4ccc(F)cc4)cc32)[C@@H](CN(C)CCOCCOCCOCCOCCNC[C@@H](C(=O)Nc2ccc3cnccc3c2)c2ccccc2)CN1", "≥ 75%"],
  ["COC[C@H]1CN[C@H](C)CN1CC(=O)N1CC(C)(C)c2nc(CN(C)CCOCCN[C@H](Cc3cccc(F)c3)C(=O)Nc3ccc(-c4ccncc4)cc3)c(Cc3ccc(F)cc3)cc21", "≥ 75%"]
]}

---

inhibition at 1 µM listing for selected compounds.
Target: ROCK2 protein (Homo sapiens, UniProt O75116)
Sequence (O75116 whole entry): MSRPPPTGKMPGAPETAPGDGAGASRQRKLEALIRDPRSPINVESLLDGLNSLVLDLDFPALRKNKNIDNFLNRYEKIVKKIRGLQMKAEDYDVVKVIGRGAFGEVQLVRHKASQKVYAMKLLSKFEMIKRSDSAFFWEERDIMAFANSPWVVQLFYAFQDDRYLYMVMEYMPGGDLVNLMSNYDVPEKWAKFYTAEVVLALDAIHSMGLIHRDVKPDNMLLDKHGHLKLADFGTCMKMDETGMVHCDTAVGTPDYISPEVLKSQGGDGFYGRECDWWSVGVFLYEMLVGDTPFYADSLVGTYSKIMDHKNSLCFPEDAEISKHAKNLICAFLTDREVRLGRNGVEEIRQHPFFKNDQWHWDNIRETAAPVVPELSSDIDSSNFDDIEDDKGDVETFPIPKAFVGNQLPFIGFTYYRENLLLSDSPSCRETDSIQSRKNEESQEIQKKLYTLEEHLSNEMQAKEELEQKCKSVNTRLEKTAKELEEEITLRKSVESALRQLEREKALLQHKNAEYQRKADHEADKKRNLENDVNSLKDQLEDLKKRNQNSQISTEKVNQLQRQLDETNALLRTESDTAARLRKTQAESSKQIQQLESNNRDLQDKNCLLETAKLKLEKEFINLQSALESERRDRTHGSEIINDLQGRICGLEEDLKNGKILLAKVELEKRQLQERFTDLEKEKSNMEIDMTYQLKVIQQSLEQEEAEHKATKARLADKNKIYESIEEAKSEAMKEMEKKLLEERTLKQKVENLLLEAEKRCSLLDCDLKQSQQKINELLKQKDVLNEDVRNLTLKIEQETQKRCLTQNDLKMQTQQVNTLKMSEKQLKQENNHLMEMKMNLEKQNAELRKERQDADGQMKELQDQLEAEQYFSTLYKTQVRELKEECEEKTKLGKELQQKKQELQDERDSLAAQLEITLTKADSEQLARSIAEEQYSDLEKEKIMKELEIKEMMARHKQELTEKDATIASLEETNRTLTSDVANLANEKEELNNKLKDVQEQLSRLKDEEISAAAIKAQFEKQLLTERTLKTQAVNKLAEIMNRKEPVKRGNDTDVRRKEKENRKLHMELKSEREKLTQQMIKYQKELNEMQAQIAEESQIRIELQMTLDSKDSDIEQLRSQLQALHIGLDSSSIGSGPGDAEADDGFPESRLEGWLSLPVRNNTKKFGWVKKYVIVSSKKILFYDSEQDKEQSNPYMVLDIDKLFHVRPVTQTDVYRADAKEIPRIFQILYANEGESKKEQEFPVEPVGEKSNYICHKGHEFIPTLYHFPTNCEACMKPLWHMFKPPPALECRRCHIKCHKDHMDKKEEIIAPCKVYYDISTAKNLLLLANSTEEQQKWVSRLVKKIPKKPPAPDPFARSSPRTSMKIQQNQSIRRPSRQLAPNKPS
Experiment: Degradation inducing activity of ROCK2 protein in HUVEC cells, Western blotting (Simple Western JESS)
Format: cell-based
Parameters: endogenous in cells; host or cells: HUVEC (ATCC CRL-1730)
Conditions: HUVEC, 24 h, degradation rate at 1 µM

{"columns": ["smiles.str", "inhibition at 1 µM"],
 "data": [
  ["COC[C@H]1CN[C@H](C)CN1CC(=O)N1CC(C)(C)c2ncc(Cc3ccccc3OCCOCCN[C@H](Cc3cccc(F)c3)C(=O)Nc3ccc(-c4ccncc4)cc3)cc21", "25 to 50%"],
  ["COC[C@H]1CN[C@H](C)CN1CC(=O)N1CC(C)(C)c2ncc(Cc3ccccc3OCCOCCOCCOCCOCCOCCOCCNC[C@@H](C(=O)Nc3ccc4cnccc4c3)c3ccccc3)cc21", "50 to 75%"],
  ["C[C@@H]1CN(CC(=O)N2CC(C)(C)c3ncc(Cc4ccc(F)cc4)cc32)[C@@H](CN(C)CCOCCNC[C@@H](C(=O)Nc2ccc3cnccc3c2)c2ccccc2)CN1", "< 25%"],
  ["COC[C@H]1CN[C@H](C)CN1CC(=O)N1CC(C)(C)c2ncc(Cc3cccc(OCCOCCOCCOCCOCCOCCOCCN[C@H](Cc4cccc(F)c4)C(=O)Nc4ccc(-c5ccncc5)cc4)c3)cc21", "< 25%"],
  ["C[C@@H]1CN(CC(=O)N2CC(C)(C)c3ncc(Cc4ccc(F)cc4)cc32)[C@@H](CN(C)CCOCCOCCOCCOCCOCCN[C@H](C)c2ccc(C(=O)Nc3ccncc3)cc2)CN1", "25 to 50%"]
]}

Just for reference, patent EP4578856A1 is where these values come from.
